# target-of-assay: SARS-CoV-2 3CL-protease (Severe acute respiratory syndrome coronavirus 2 (2019-nCoV) (SARS-CoV-2), UniProt P0DTD1)
# measurement-notes: SARS-CoV-2 3C-like (3CL) protease fluorescence assay (FRET)
# Type: biochemical
# measurement-conditions: read-out: FRET IC50
Assignment: determine reported IC50 for the given molecules.

IC50 lookup needed for `CC(C)C[C@@H](C(=O)N1C[C@]2(C[C@H]1C#N)C(=O)Nc1ccccc12)N(C)C(=O)c1ccc(F)c(Cl)c1` , thanks. < 100 nM

How about `COc1cccc2[nH]c(C(=O)N[C@@H](CC(C)C)C(=O)N3C[C@]4(C[C@H]3C(=O)O)C(=O)Nc3ccccc34)cc12` ? 100 to 1000 nM

How about CC(C)C[C@@H](C(=O)N1C[C@]2(C[C@H]1C(O)S(=O)(=O)O)C(=O)Nc1ccccc12)N(C)C(=O)c1cc2c(F)cccc2[nH]1 (stereo partly drawn) ? < 100 nM

* * *

# target-of-assay: UniProtKB P0DTD1
# measurement-notes: SARS-CoV-2 3C-like (3CL) protease fluorescence assay (FRET)
# Format: biochemical
# measurement-conditions: read-out: FRET IC50
pIC50: −log10 of the molar value.
endpoint-name: pIC50

pIC50 lookup needed for COc1cccc2[nH]c(C(=O)N(C)[C@@H](CC(C)C)C(=O)N3C[C@]4(C[C@H]3C(=O)C(=O)NC3CCCCC3)C(=O)Nc3ccccc34)cc12 [Compound 34] , thanks. < 6.00

How about COc1cccc2[nH]c(C(=O)N[C@H](CC(C)C)C(=O)N3C[C@]4(C[C@H]3C#N)C(=O)Nc3ccccc34)cc12 [Compound 12] ? < 6.00

How about COc1cccc2[nH]c(C(=O)N[C@@H](CC(C)(C)C)C(=O)N3C[C@]4(C[C@H]3C#N)C(=O)Nc3ccccc34)cc12 [Compound 15] ? > 7.00

* * *

# target-of-assay: SARS-CoV-2 3CL-protease (Severe acute respiratory syndrome coronavirus 2 (2019-nCoV) (SARS-CoV-2), UniProt P0DTD1)
# measurement-notes: SARS-CoV-2 3C-like (3CL) protease fluorescence assay (FRET)
# Format: biochemical
# measurement-conditions: read-out: FRET IC50
pIC50: −log10 of the molar value.
Assignment: determine reported pIC50 for the given compounds.

pIC50 lookup needed for CC(C)C[C@@H](C(=O)N1C[C@]2(C[C@H]1C#N)C(=O)Nc1ccccc12)N(C)C(=O)c1[nH]c2ccccc2c1-c1ccccc1 [Compound 48] , thanks. 6.00 to 7.00

How about CC(C)C[C@@H](C(=O)N1C[C@]2(C[C@H]1C#N)C(=O)Nc1ccccc12)N(C)C(=O)c1cc2cc(-c3ccccc3)ccc2[nH]1 [Compound 54] ? > 7.00

How about CC(C)C[C@@H](C(=O)N1C[C@]2(C[C@H]1C#N)C(=O)Nc1ccccc12)N(C)C(=O)OCc1ccccc1 [Compound 39] ? > 7.00

How about CN(C(=O)c1cc2c(F)cc(F)c(F)c2[nH]1)[C@@H](CC1CCCC1)C(=O)N1C[C@]2(C[C@H]1C#N)C(=O)Nc1ccccc12 [Compound 109] ? > 7.00

How about COc1cccc2[nH]c(C(=O)N[C@@H](CC(C)C)C(=O)N3C[C@]4(C[C@H]3C(=O)C(=O)NC3CCCCC3)C(=O)Nc3ccccc34)cc12 [Compound 33] ? > 7.00
